biological target: T1, human P2X4 peptide (human, UniProt Q99571 301-313); experiment: indirect ELISA, wells coated with human P2X4 peptide, anti-His detection
T1 construct: range 301-313; The range 301-313 is stated for rat P2X4R, with the human peptide as its 'human form'; also called human Target P2X4R peptide; thirteen amino acid extracellular peptide fragment of human P2X4 receptor
T1 peptide (looked up): RDLAGNEQRTLIK
metric_name: Kd (nM)
Field format: number, assumed nM, no unit text.

Prompt line: Value lookup for Kd; key = humanized P2X4R scFv HC2-LC1 (scFv, HC-(G4S)3-LC with C-terminal His tag, expressed in E. coli) scFv: MAQVQLQESGPGLVKPSQTLSLTCTTSGFTFTDYYMSWVRQAPGKGLEWIGFIRNKANGYTTEYSASVKGRFTISRDNSKNQFSLRLSSVTAADTAVYYCARWEGDLLYAMDYWGQGTTVTVSSGGGGSGGGGSGGGGSDIQMTQTTSSLSASLGDRVTISCSASQGISNYLNWYQQKPDGTVKLLIYYTSSLHSGVPSRFSGSGSGTDYSLTISNLEQEDIATYYCQQYSKLPWTFGGGTKLEIKRAAALEHHHHHH
Response line: 12

Prompt line: Given humanized P2X4R scFv HC1-LC1 (scFv, HC-(G4S)3-LC with C-terminal His tag, expressed in E. coli) scFv: MAEVKLVESGGGLVQPGGSLRLSCATSGFTFTDYYMSWVRQPPGKALEWLGFIRNKANGYTTEYSASVKGRFTISRDNSQSILYLQMNTLRAEDSATYYCARWEGDLLYAMDYWGQGTSVTVSSGGGGSGGGGSGGGGSDIQMTQTTSSLSASLGDRVTISCSASQGISNYLNWYQQKPDGTVKLLIYYTSSLHSGVPSRFSGSGSGTDYSLTISNLEQEDIATYYCQQYSKLPWTFGGGTKLEIKRAAALEHHHHHH , state its recorded Kd.
Response line: 24

Prompt line: For the binder shown here, humanized P2X4R scFv HC3-LC1 (scFv, HC-(G4S)3-LC with C-terminal His tag, expressed in E. coli) scFv: MAEVQLVESGGGLVQPGGSLRLSCATSGFTFTDYYMHWVRQAPGKGLEWVGFIRNKANGYTTEYSASVKGRFTISRDNSKNTLYLQMNSLRAEDTAVYYCARWEGDLLYAMDYWGQGTLVTVSSGGGGSGGGGSGGGGSDIQMTQTTSSLSASLGDRVTISCSASQGISNYLNWYQQKPDGTVKLLIYYTSSLHSGVPSRFSGSGSGTDYSLTISNLEQEDIATYYCQQYSKLPWTFGGGTKLEIKRAAALEHHHHHH , give the reported Kd.
Response line: 4.7

Prompt line: Which Kd is reported for this binder? humanized hP2X4R scFv HC3-LC3 (scFv, HC-(G4S)3-LC with C-terminal His tag; also called hP2X4R HC3-LC3 scFv; HC3 LC3 hP2X4R scFv) scFv: MAEVQLVESGGGLVQPGGSLRLSCATSGFTFTDYYMHWVRQAPGKGLEWVGFIRNKANGYTTEYSASVKGRFTISRDNSKNTLYLQMNSLRAEDTAVYYCARWEGDLLYAMDYWGQGTLVTVSSGGGGSGGGGSGGGGSDIQMTQSPSSLSASVGDRVTITCRASQGISNYLNWYQQKPGKAPKLLIYYTSSLHSGVPSRFSGSGSGTDFTLTISSLQPEDFAYYYCQQYSKLPWTFGGGTKVEIKRAAALEHHHHHH
Response line: 2.3

Prompt line: Any idea what its Kd is? The binder is humanized P2X4R scFv HC2-LC3 (scFv, HC-(G4S)3-LC with C-terminal His tag) scFv: MAQVQLQESGPGLVKPSQTLSLTCTTSGFTFTDYYMSWVRQAPGKGLEWIGFIRNKANGYTTEYSASVKGRFTISRDNSKNQFSLRLSSVTAADTAVYYCARWEGDLLYAMDYWGQGTTVTVSSGGGGSGGGGSGGGGSDIQMTQSPSSLSASVGDRVTITCRASQGISNYLNWYQQKPGKAPKLLIYYTSSLHSGVPSRFSGSGSGTDFTLTISSLQPEDFAYYYCQQYSKLPWTFGGGTKVEIKRAAALEHHHHHH
Response line: 29
